TESTED_ON: Shiga toxin 2 (Escherichia coli O157:H7) (UniProt P09385+P09386)
METHOD_SUMMARY: E. coli 0.157:H7 Shiga Toxin SOP - stx2 screening assay
Format: functional
Set-up: scale not given: direction of the effect not stated beside the values
APPLIED_CONDITIONS: 30 µM
Here the recorded Percent Effect is given for each entry.
OBSERVABLE: Percent Effect (%)

INSERT INTO assay_data (compound, observable, unit_label, quantitative_readout) VALUES
  ('CCN1CCCC1CN(CCN(C)C)S(=O)(=O)c1ccc(C#N)cc1 (stereo unspecified)', 'Percent Effect', '%', -8.05),
  ('O=C(CCc1cccnc1)N1CCCC(n2cncn2)C1 (stereo unspecified)', 'Percent Effect', '%', 1.94),
  ('Cc1oc(-c2ccco2)nc1CC(=O)N1CCN(C2CCC2)CC1', 'Percent Effect', '%', 24.8),
  ('O=S(=O)(CCNC1CCc2ncnn2C1)c1ccccc1 (stereo unspecified)', 'Percent Effect', '%', -24.1),
  ('Cc1cnn(C2CCCN(C(=O)c3cc(C4CC4)on3)C2)c1 (stereo unspecified)', 'Percent Effect', '%', 14.5),
  ('Cc1cnc(NC(=O)N2CCCC2)s1', 'Percent Effect', '%', 1.43);

----------
TESTED_ON: Shiga toxin 2 (Escherichia coli O157:H7) (UniProt P09385+P09386)
METHOD_SUMMARY: E. coli 0.157:H7 Shiga Toxin SOP - stx2 screening assay
Assay type: functional
Set-up: scale not given: direction of the effect not stated beside the values
APPLIED_CONDITIONS: 30 µM
# Percent Effect annotations
OBSERVABLE: Percent Effect (%)

INSERT INTO measurements (molecule, quantitative_readout) VALUES
  ('O=C(NCc1nnc2ccccn12)N1CCc2sccc2C1', 1.75),
  ('OC1CCCN(Cc2c(-c3ccco3)[nH]c3ncccc23)C1 (centres undefined)', 6.33),
  ('O=C(c1csc(-c2cccs2)n1)N1CCCC1Cn1cccn1 (centres undefined)', 37.2),
  ('Cc1ccc(SCC2CNc3nc4ccccc4c(=O)n32)c(C)c1 (centres undefined)', 9.77),
  ('NC(=O)C1(CCCc2cccnc2)CCCN(c2ncccn2)C1 (centres undefined)', -4.97),
  ('CC[C@@H]1N(Cc2ccsc2)CCC[C@]12CCC(=O)N2CCOC', 7.49),
  ('Cc1ccc(C(=O)N2CCCC3(CCCC(=O)N3C)C2)cc1F (centres undefined)', -5.85),
  ('CN(C)C(=O)N1CCN(Cc2ccccc2)[C@@H]2CS(=O)(=O)C[C@@H]21', -3.78),
  ('CC(CNC(=O)c1ccccc1Oc1cccnc1)N(C)C (centres undefined)', -5.12),
  ('CCN(CC1CCOC1)C(=O)Nc1ccc(-n2cncn2)nc1 (centres undefined)', -25.9),
  ('Cc1[nH]ccc1C(=O)N1CCCC(c2nccn2Cc2cscn2)C1 (centres undefined)', 4.58),
  ('Cc1nc(CN2CCCC(N(C)CCc3ccncc3)C2)no1 (centres undefined)', 22.9),
  ('c1ccc(N2CCCC3(CCN(Cc4nccs4)C3)C2)nc1 (centres undefined)', 7.26),
  ('O=C(CCN1CCCN(c2nccs2)CC1)NCC1CCCCC1', -2.79),
  ('COc1ccc(CCN2CCc3c(nc(C4CC4)n3C)C2)cc1', -51.7),
  ('Cc1ccc(C(=O)N2CCN(CCC(C)(C)C)CC2)c(=O)[nH]1', 1.57),
  ('O=C(CCN1CCC(C(=O)c2cc(F)ccc2F)CC1)NC1CC1', -24.2),
  ('CNc1cc(CCNC(=O)c2cccnc2)nc(-c2ccncc2)n1', 2.08),
  ('CNc1cccc(C2CCCN(C(C)=O)C2)n1 (centres undefined)', 23.2),
  ('COc1ccc(CN2CCC3(CC2)NC(=O)CC3c2ccncc2)cc1 (centres undefined)', 9.6),
  ('CN(C)S(=O)(=O)c1ccc(CN2CCCC2c2ccccc2)o1 (centres undefined)', -1.81),
  ('Cc1ccc(N2CCCC(NCc3ccsc3)C2)nn1 (centres undefined)', 10.6),
  ('CN(C)[C@@H]1CN(Cc2ccoc2)C[C@@H]2CCCO[C@@H]21', 2.87),
  ('CCN(CC)CCNC(=O)c1cc(C(C)C)nc(N2CCCC2)n1', -34);
